biological target: human plasma-derived FIXa (Haematologic Technologies Inc) (human, UniProt P00740 47-191; P00740 227-461); assay: cell-based or functional assay
Sequence (P00740 47-191, chain 1 of 2): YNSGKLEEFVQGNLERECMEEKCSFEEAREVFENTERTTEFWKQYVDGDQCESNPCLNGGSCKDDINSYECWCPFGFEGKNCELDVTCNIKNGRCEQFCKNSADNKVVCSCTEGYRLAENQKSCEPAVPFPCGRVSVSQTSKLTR
Sequence (P00740 227-461, chain 2 of 2): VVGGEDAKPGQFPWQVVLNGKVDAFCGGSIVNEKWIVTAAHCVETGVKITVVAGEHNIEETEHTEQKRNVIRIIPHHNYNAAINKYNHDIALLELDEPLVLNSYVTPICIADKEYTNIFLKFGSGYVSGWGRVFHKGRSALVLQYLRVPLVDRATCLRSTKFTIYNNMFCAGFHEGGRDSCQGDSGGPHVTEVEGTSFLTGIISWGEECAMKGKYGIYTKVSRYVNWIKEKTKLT
A collection of binders and their measured Stimulation index at 1600 nM OA antibody
Quick note: give the figure in fold, leave out the unit.

>>> reported_measurement("mAb5-0514 (monovalent one-armed version of mAb1-8543) (antibody, V domains shown) VH: EVQLVESGGGLVQPGRSLKLSCAASKFRFDDYAMHWVRQVPGKGLEWVSGISWRGDIIGYVDSVKGRFTISRDNEKNSLYLQLNSLRAEDTALYYCVKSYGSGSFYNAFDSWGQGTLVTVSS VL: DIQMTQSPSTLSASAGDRVTITCRASQSISSWLAWYQQKPGKAPKFLIYKASRLERDVPSRFSGSGSGTEFSLTISSLQPDDFATYYCLEYRSYIRTFGQGTKVEIK")
283

We next turn to a different binder, shown below.
Query: Entry mAb5-1263 (monovalent one-armed version of mAb1-9015) (antibody, V domains shown) VH: EVQLVESGGGLVQPGRSLKLSCAASGFTFDDYAMHWVRQVPGKGLEWVSGISWRGDIKGYVDSVKGRFTISRDNAKNSLYLQLNSLRAEDTALYYCVKSYGSGSFYNAFDSWGQGTLVTVSS VL: DIQMTQSPSTLSASAGDRVTITCRASQSISSWLAWYQQKPGKAPKFLIYKASRLERGVPSRFSGSGSGTEFSLTISSLQPDDFATYYCLEYSSYIRTFGQGTKVEIK has what Stimulation index at 1600 nM OA antibody?
Result: 1330

The reported measurements were obtained from patent US20250011468A1.
